target: E. coli DdlB enzyme (D-alanine:D-alanine ligase) (Escherichia coli, UniProt P07862); construct: made in house; host or cells: E. coli; assay: biochemical; conditions: tested concentration 2.0 mM; read-out: DdlB RA
compounds and their reported remaining activity at 2000 µM

compound	tested.system	remaining activity at 2000 µM, %
CCn1cnnc1-c1nn(C)c2c1CNCC2 [Compound S565-0571]	E. coli DdlB enzyme (D-alanine:D-alanine ligase) (Escherichia coli, UniProt P07862)	89
CC1CCN(c2c(-c3ccccc3)c(=O)c2=O)CC1 [Compound E470-0346]	E. coli DdlB enzyme (D-alanine:D-alanine ligase) (Escherichia coli, UniProt P07862)	98
CCS(=O)(=O)N1CCC2(CCC2OC)CC1 (centres unmarked) [Compound S664-0247]	E. coli DdlB enzyme (D-alanine:D-alanine ligase) (Escherichia coli, UniProt P07862)	92
Cn1ncc(C(=O)O)c1C(=O)NCC1CCCO1 (centres unmarked) [Compound Y504-5972]	E. coli DdlB enzyme (D-alanine:D-alanine ligase) (Escherichia coli, UniProt P07862)	96
Cc1nn(Cc2c(C(=O)O)noc2C)c(C)c1C [FF01-5078]	E. coli DdlB enzyme (D-alanine:D-alanine ligase) (Escherichia coli, UniProt P07862)	81
O=C1CSC(c2ccccc2)N1c1ccccc1 (centres unmarked) [Compound 2339-2195]	E. coli DdlB enzyme (D-alanine:D-alanine ligase) (Escherichia coli, UniProt P07862)	103
COC(=O)Cn1nc(C(F)F)c2c1CCCC2 [Compound Y504-8961]	E. coli DdlB enzyme (D-alanine:D-alanine ligase) (Escherichia coli, UniProt P07862)	94
Cc1cc(N)n(-c2ccc(S(=O)(=O)O)cc2)n1 [Compound 2991-0739]	E. coli DdlB enzyme (D-alanine:D-alanine ligase) (Escherichia coli, UniProt P07862)	97
O=c1c(NCc2ccco2)c(-c2ccccc2)c1=O [Compound E470-0461]	E. coli DdlB enzyme (D-alanine:D-alanine ligase) (Escherichia coli, UniProt P07862)	137
Cc1cc(C)n(C(=O)C2CC=CCC2C(=O)O)n1 (centres unmarked) [Compound Y203-9842]	E. coli DdlB enzyme (D-alanine:D-alanine ligase) (Escherichia coli, UniProt P07862)	90
CC(C)C(=O)N1CCC2(CCNC(=O)CC2)CC1 [Compound S509-1270]	E. coli DdlB enzyme (D-alanine:D-alanine ligase) (Escherichia coli, UniProt P07862)	93

* * *

Reported remaining activity at 2400 µM values for the following compounds.
biological target: E. coli DdlB enzyme (D-alanine:D-alanine ligase) (Escherichia coli, UniProt P07862); construct: made in house; host or cells: E. coli; assay: biochemical; conditions: tested concentration 2.4 mM; read-out: DdlB RA

compound	remaining activity at 2400 µM [%]
Cc1ccc(C)c(C(=O)N(C)CC2CCOC2)c1 (stereo not shown)	99
O=C(Nc1ccccn1)NC1CCS(=O)(=O)C1 (stereo not shown)	87
CC1(C)CC(n2nc(O)cc2N)CCO1 (stereo not shown)	101
NS(=O)(=O)Cc1ccccc1Cl	89
CCNC(=O)N1CCCN(C)c2ccccc21	96
CCOC(=O)c1ccc2oc(=O)[nH]c2c1	92
CCc1nc2ccc(C(N)=O)cc2nc1CC	88
Cc1ccc(C#N)c(SCC(=O)O)n1	82
CCC(=O)Nc1ccc2[nH]c(=O)oc2c1	85
CCN(CC)S(=O)(=O)c1ncn[nH]1	93

* * *

target: E. coli MurA enzyme (UDP-N-acetylglucosamine enolpyruvyl transferase) (Escherichia coli); test: MurA inhibition assay (malachite green, deselection); conditions: read-out: MurA inhibition, RA (Residual Activity)
Sequence (P0A749 whole entry): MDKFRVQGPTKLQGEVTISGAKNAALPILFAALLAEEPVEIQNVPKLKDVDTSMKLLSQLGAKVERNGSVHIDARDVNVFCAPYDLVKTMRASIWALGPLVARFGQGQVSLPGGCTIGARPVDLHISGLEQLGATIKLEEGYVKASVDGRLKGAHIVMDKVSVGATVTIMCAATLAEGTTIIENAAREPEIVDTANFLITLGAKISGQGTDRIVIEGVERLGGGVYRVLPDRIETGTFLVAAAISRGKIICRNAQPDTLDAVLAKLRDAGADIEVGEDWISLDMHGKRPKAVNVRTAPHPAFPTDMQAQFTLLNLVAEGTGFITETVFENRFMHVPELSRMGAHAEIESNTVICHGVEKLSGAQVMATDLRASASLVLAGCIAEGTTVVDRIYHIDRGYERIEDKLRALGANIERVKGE
Labelling field: enter Met if recorded remaining activity at 5000 µM is less than 80%. Enter Not met if it equals or exceeds that cut-off.

compound	group.label
CCOc1ccc2c(n1)CCN(C(=O)c1ccccn1)C2 [Compound 6]	Not met
COc1ccc(-n2c(C)ccc2C)nc1 [Compound 4]	Met
Cc1noc(C)c1C(=O)NCC1Cn2cccc2CN1C (stereo not drawn) [Compound 5]	Met
Cc1cccc(-c2ccnc3c(C(=O)O)cnn23)c1 [Compound 3]	Met
COCc1cn(C2CNC2)nn1 [Compound 8]	Not met

* * *

target: E. coli DdlB enzyme (D-alanine:D-alanine ligase) (Escherichia coli, UniProt P07862); construct: made in house; host or cells: E. coli; assay: biochemical; conditions: residual activity; tested concentration 1.9 mM; read-out: DdlB RA
API: label(entry) gives condition met if the entry's remaining activity at 1900 µM is strictly smaller than 90%; on equality or larger values it gives condition not met.

compound	tested.system	group.label
Oc1cc(-c2ccccc2)cc2c1nnc1ncnn12	E. coli DdlB enzyme (D-alanine:D-alanine ligase) (Escherichia coli, UniProt P07862)	condition met
O=S(=O)(Nc1ccccc1Cl)c1ccc(F)cc1	E. coli DdlB enzyme (D-alanine:D-alanine ligase) (Escherichia coli, UniProt P07862)	condition not met
Oc1cccc2c1nnc1nc(-c3cccnc3)nn12	E. coli DdlB enzyme (D-alanine:D-alanine ligase) (Escherichia coli, UniProt P07862)	condition met
CCNC(=O)N1CCC(c2noc(-c3ccccc3)n2)C1 (centres unmarked)	E. coli DdlB enzyme (D-alanine:D-alanine ligase) (Escherichia coli, UniProt P07862)	condition not met
Cc1n[nH]c([C@@H]2CC(F)(F)CN2C2CCCCCC2)n1	E. coli DdlB enzyme (D-alanine:D-alanine ligase) (Escherichia coli, UniProt P07862)	condition not met

* * *

biological target: E. coli DdlB enzyme (D-alanine:D-alanine ligase) (Escherichia coli); construct: made in house; host or cells: E. coli; assay: biochemical; details: residual activity; tested concentration 2.0 mM; read-out: DdlB RA
Form field: remaining activity at 2000 µM (one value per entry).

compound	remaining activity at 2000 µM
Cc1ccc(-c2csc(NC(=O)CO)n2)cc1	88%
O=C(Cc1ccccc1[N+](=O)[O-])Nc1nnc[nH]1	118%
CN1CCN(C2CC(=O)N(c3ccccc3)C2=O)CC1 (stereo not drawn)	99%
CCN1CCOC(=O)C1CC(=O)Nc1ccc(F)cc1 (stereo not drawn)	88%
COc1ccccc1Nc1ncccc1C(=O)O	99%
CCn1cc(S(=O)(=O)NC2CCCC2)c2cccnc21 [Compound P633-0557F]	89%
O=C(O)c1ncoc1-c1ccc2c(c1)OCCO2	62%
Cc1ccc(Cl)cc1S(=O)(=O)N1CCOCC1	98%
COc1ccc(-c2ccc(C(=O)O)c(=O)[nH]2)cc1	76%
Cc1ccc(C(=O)O)c(NC(=O)c2ccncc2)c1	97%
COc1cccc(-c2ncc(C(=O)O)c(=O)[nH]2)c1	92%
CC1CN(S(=O)(=O)c2ccc(F)cc2)CC(C)O1 (stereo not drawn)	93%
CCCNC(=O)N1CCC2(CCC(=O)N(C)CC2)CC1	98%
O=C(O)c1ccc(N2Cc3ccccc3C2)cc1O	61%
O=C(Cn1cc2c(n1)CCCC2)Nc1ccc(F)cc1	79%
O=C(O)c1ccccc1NC(=O)N1CCOCC1	96%
O=S(=O)(NC1CCCCCC1)c1ccc(F)cc1	89%
CC1CCCN(C(=O)c2nc[nH]c2C(=O)NC(C)C)C1 (stereo not drawn)	96%
N#Cc1ccc(NC(=O)[C@H]2CC=CC[C@H]2C(=O)O)cc1	91%
CC(=O)Nc1cc(-n2cnnc2)ccc1C(=O)O	97%
CN(C(=O)c1cc[nH]n1)C1CC(C)(C)N(C)C(C)(C)C1	-1.26%
Cc1nc2ccc(Br)cn2c1C(=O)O	94%
O=c1[nH]c(O)ncc1S(=O)(=O)N1CCCC1	94%
CC(C)(C)c1cc(C(=O)O)nn1-c1ccccc1	102%
O=C(O)c1cccnc1NCc1ccc(F)cc1	102%
Oc1c(Cl)cc(Cl)c2ccc(Cl)nc12	99%
O=S(=O)(c1ccccc1)N1CCOc2ccccc21	97%
Cc1ccc(S(=O)(=O)N2CCc3[nH]cnc3C2)cc1	94%
Cc1ccc(CC2CC(=O)N(c3ccncc3)C2=O)cc1 (stereo not drawn)	84%
Cc1ccc2nc3c(C(=O)O)cccn3c(=O)c2c1	75%
O=C(C1CCCN(C(=O)C2CCC2)C1)N1CCOCC1 (stereo not drawn)	98%
O=C(O)CC1C(=O)NCCN1C1Cc2ccccc2C1 (stereo not drawn)	103%
Oc1nnc(-c2ccccc2)c(-c2ccccc2)n1	104%

* * *

target: E. coli DdlB enzyme (D-alanine:D-alanine ligase) (Escherichia coli, UniProt P07862); construct: made in house; host or cells: E. coli; test: biochemical; details: fragment library screening; tested concentration 1.8 mM; read-out: DdlB RA

molecule	remaining activity at 1800 µM
CCNc1cc(N2CCC(CCC(=O)O)CC2)ncn1	83%
O=C(O)C1CCN(c2ccc(C(F)(F)F)cn2)CC1	92%
O=C(O)CCCn1cnc2ccc([N+](=O)[O-])cc2c1=O	63%
O=C(O)c1cnc2ccc(OC(F)(F)F)cc2c1O	-5%

* * *

target: E. coli DdlB enzyme (D-alanine:D-alanine ligase) (Escherichia coli, UniProt P07862); construct: made in house; host or cells: E. coli; test: biochemical; conditions: residual activity; tested concentration 1.8 mM; read-out: DdlB RA
Here the recorded remaining activity at 1800 µM is given for each entry.

molecule	tested.system	measurement.units	remaining activity at 1800 µM
Cc1c(S(=O)(=O)NC2CCCCCC2)cnn1C	E. coli DdlB enzyme (D-alanine:D-alanine ligase) (Escherichia coli, UniProt P07862)	%	94
CC1CCN(S(=O)(=O)c2cnc(O)[nH]c2=O)CC1	E. coli DdlB enzyme (D-alanine:D-alanine ligase) (Escherichia coli, UniProt P07862)	%	97
O=C(O)c1ccccc1NCCc1ccc(Cl)cc1	E. coli DdlB enzyme (D-alanine:D-alanine ligase) (Escherichia coli, UniProt P07862)	%	105
O=C(NC1CCCCC1)c1ccc2cccc(O)c2n1	E. coli DdlB enzyme (D-alanine:D-alanine ligase) (Escherichia coli, UniProt P07862)	%	80
Cc1nc(O)[nH]c(=O)c1S(=O)(=O)N1CCCCC1	E. coli DdlB enzyme (D-alanine:D-alanine ligase) (Escherichia coli, UniProt P07862)	%	89
